Assay: Binding affinity against sigma opioid receptor using [3H]pentazocine as radioligand.
pKi: −log10 of the molar value.
Where pKi equals or exceeds 7, the correct label is Condition met; where it does not, the label is Condition not met.

Molecular string	Category label
C=CCN1CC[C@]2(C)c3cc(O)ccc3C[C@@H]1[C@@H]2C	Condition not met
C[C@H]1[C@H]2Cc3ccc(O)cc3[C@@]1(C)CCN2	Condition not met
C[C@H]1[C@H]2Cc3ccc(O)cc3[C@@]1(C)CCN2CCCCCc1ccccc1	Condition met
CC(C)CCN1CC[C@]2(C)c3cc(O)ccc3C[C@@H]1[C@@H]2C	Condition met
C[C@@H]1[C@@H]2Cc3ccc(O)cc3[C@]1(C)CCN2CCCCCc1ccccc1	Condition met

q: // inclusive: pKi at least 7? input: `C[C@@H]1[C@@H]2Cc3ccc(O)cc3[C@@]1(C)CCN2CCc1ccccc1`
a: Condition met

q: // inclusive: pKi at least 7? input: `C[C@H]1[C@H]2Cc3ccc(O)cc3[C@@]1(C)CCN2CCCc1ccccc1`
a: Condition met

====

Test: Binding affinity against PCP receptor using [3H]TCP as radioligand.
Reported metric: log10 of Ki (log10 of the value in nM)
A value of 2 here means Ki of 100 in nM, since values are log10.

Some solved cases for reference:
Compound	log10 of Ki
CC(C)=CCN1CC[C@@]2(C)c3cc(O)ccc3C[C@@H]1[C@@H]2C	2.93
CC(C)CCN1CC[C@]2(C)c3cc(O)ccc3C[C@@H]1[C@@H]2C	3.44
CC(C)=CCN1CC[C@]2(C)c3cc(O)ccc3C[C@H]1[C@H]2C [(+)-PENTAZOCINE]	3.61
C[C@H]1[C@H]2Cc3ccc(O)cc3[C@@]1(C)CCN2	2.29

Next:
q: So what does the record say about log10 of Ki for `C[C@H]1[C@H]2Cc3ccc(O)cc3[C@@]1(C)CCN2C/C=C/Cl` ?
a: 2.67

====

The reader will find pKi measurements below, all made with UniProt P33535.
Note: pKi values are expressed as the negative base-10 logarithm of concentration in M.

Some solved cases for reference:
Molecular string	Test result
C=C[C@H](C)N1CC[C@@]2(C)c3cc(O)ccc3C[C@H]1[C@H]2C	5.64
C[C@H]1[C@H]2Cc3ccc(O)cc3[C@@]1(C)CCN2CCCCCc1ccccc1	7.17
C[C@@H]1[C@@H]2Cc3ccc(O)cc3[C@]1(C)CCN2Cc1ccccc1	5.79
C[C@H]1[C@H]2Cc3ccc(O)cc3[C@]1(C)CCN2CCc1ccccc1	9.70
C/C=C\CN1CC[C@]2(C)c3cc(O)ccc3C[C@@H]1[C@@H]2C	7.96

q: So what does the record say about pKi for `C[C@@H]1[C@@H]2Cc3ccc(O)cc3[C@]1(C)CCN2C` ?
a: 5.30

q: So what does the record say about pKi for `C[C@@H]1[C@@H]2Cc3ccc(O)cc3[C@@]1(C)CCN2CCc1ccccc1` ?
a: 7.26

q: So what does the record say about pKi for `C=C[C@H](C)N1CC[C@]2(C)c3cc(O)ccc3C[C@@H]1[C@@H]2C` ?
a: 8.52

====

Experiment: Binding affinity against sigma opioid receptor using [3H](+)-3-PPP as radioligand.
Ki values, listed per item

Some solved cases for reference:
Molecular string	Reported metric	Test result
C=C[C@H](C)N1CC[C@@]2(C)c3cc(O)ccc3C[C@H]1[C@H]2C	Ki	159 nM
C/C=C/CN1CC[C@@]2(C)c3cc(O)ccc3C[C@H]1[C@H]2C	Ki	52.5 nM
CC#CCN1CC[C@@]2(C)c3cc(O)ccc3C[C@H]1[C@H]2C	Ki	93.7 nM

Next:
q: So what does the record say about Ki for `C/C=C\CN1CC[C@]2(C)c3cc(O)ccc3C[C@@H]1[C@@H]2C` ?
a: 460 nM

====

Experiment: Binding affinity against sigma opioid receptor using [3H]pentazocine as radioligand.
pKi values, listed per item
Note: pKi values are expressed as the negative base-10 logarithm of concentration in M.

Some solved cases for reference:
Molecular string	pKi
C[C@@H]1[C@@H]2Cc3ccc(O)cc3[C@]1(C)CCN2Cc1ccccc1	9.17
C[C@H]1[C@H]2Cc3ccc(O)cc3[C@]1(C)CCN2CCc1ccccc1	7.21
C[C@H]1[C@H]2Cc3ccc(O)cc3[C@@]1(C)CCN2C/C=C/Cl	6.39
C[C@@H]1[C@@H]2Cc3ccc(O)cc3[C@@]1(C)CN2CC1CC1	7.76
C[C@@H]1[C@@H]2Cc3ccc(O)cc3[C@]1(C)CCN2CCCc1ccccc1	8.94

q: So what does the record say about pKi for `C[C@H]1[C@H]2Cc3ccc(O)cc3[C@@]1(C)CCN2CCCCc1ccccc1` ?
a: 7.07

q: So what does the record say about pKi for `C[C@@H]1[C@@H]2Cc3ccc(O)cc3[C@]1(C)CCN2CCCCc1ccccc1` ?
a: 8.49

q: So what does the record say about pKi for `CC(C)CCN1CC[C@@]2(C)c3cc(O)ccc3C[C@H]1[C@H]2C` ?
a: 8.65

q: So what does the record say about pKi for `C[C@@H]1[C@@H]2Cc3ccc(O)cc3[C@]1(C)CCN2C/C=C/Cl` ?
a: 7.98

q: So what does the record say about pKi for `C[C@H]1[C@H]2Cc3ccc(O)cc3[C@@]1(C)CCN2Cc1ccccc1` ?
a: 7.44

====

Experiment: Binding affinity against PCP receptor using [3H]TCP as radioligand.
Reported metric: Ki (nM)
API: value field is a number in nM; no unit string.

Some solved cases for reference:
Molecular string	Measurement units	Test result
C/C=C/CN1CC[C@]2(C)c3cc(O)ccc3C[C@@H]1[C@@H]2C	nM	347
CC#CCN1CC[C@]2(C)c3cc(O)ccc3C[C@@H]1[C@@H]2C	nM	360
C/C=C\CN1CC[C@]2(C)c3cc(O)ccc3C[C@@H]1[C@@H]2C	nM	1120
C/C=C/CN1CC[C@@]2(C)c3cc(O)ccc3C[C@H]1[C@H]2C	nM	179

Next:
q: So what does the record say about Ki for `C[C@@H]1[C@@H]2Cc3ccc(O)cc3[C@]1(C)CCN2C` ?
a: 41

====

Assay: Binding affinity against PCP receptor using [3H]TCP as radioligand.
Reported metric: Ki (µM)
API: value field is a number in µM; no unit string.

Molecular string	Measurement units	Ki
C[C@H]1[C@H]2Cc3ccc(O)cc3[C@]1(C)CCN2CCc1ccccc1	µM	1.88

q: So what does the record say about Ki for `C=C[C@@H](C)N1CC[C@]2(C)c3cc(O)ccc3C[C@@H]1[C@@H]2C` ?
a: 1.9

q: So what does the record say about Ki for `C[C@@H]1[C@@H]2Cc3ccc(O)cc3[C@]1(C)CCN2CCCc1ccccc1` ?
a: 9.7

q: So what does the record say about Ki for `C[C@@H]1[C@@H]2Cc3ccc(O)cc3[C@]1(C)CCN2C/C=C/Cl` ?
a: 0.25

q: So what does the record say about Ki for `C/C=C\CN1CC[C@@]2(C)c3cc(O)ccc3C[C@H]1[C@H]2C` ?
a: 0.381

q: So what does the record say about Ki for `C[C@H]1[C@H]2Cc3ccc(O)cc3[C@@]1(C)CCN2CCCCc1ccccc1` ?
a: 5.96

q: So what does the record say about Ki for `CC#CCN1CC[C@@]2(C)c3cc(O)ccc3C[C@H]1[C@H]2C` ?
a: 1.23

q: So what does the record say about Ki for `C[C@@H]1[C@@H]2Cc3ccc(O)cc3[C@@]1(C)CN2CC1CC1` ?
a: 0.153

====

Ratio values, listed per item
Experiment: Ratio of binding affinities of pcp receptor(ki(nM)) to sigma opioid receptor(ki(nM))
Would you mind answering with just the numeric figure?

Some solved cases for reference:
Compound	Ratio
C[C@H]1[C@H]2Cc3ccc(O)cc3[C@@]1(C)CCN2CCCCc1ccccc1	70
C[C@H]1[C@H]2Cc3ccc(O)cc3[C@@]1(C)CCN2C/C=C/Cl	1.2

Next:
q: So what does the record say about Ratio for CC(C)=CCN1CC[C@]2(C)c3cc(O)ccc3C[C@H]1[C@H]2C [(+)-PENTAZOCINE] ?
a: 1300

====

Target: Mu-type opioid receptor (Rattus norvegicus, UniProt P33535)
Sequence (P33535 whole entry): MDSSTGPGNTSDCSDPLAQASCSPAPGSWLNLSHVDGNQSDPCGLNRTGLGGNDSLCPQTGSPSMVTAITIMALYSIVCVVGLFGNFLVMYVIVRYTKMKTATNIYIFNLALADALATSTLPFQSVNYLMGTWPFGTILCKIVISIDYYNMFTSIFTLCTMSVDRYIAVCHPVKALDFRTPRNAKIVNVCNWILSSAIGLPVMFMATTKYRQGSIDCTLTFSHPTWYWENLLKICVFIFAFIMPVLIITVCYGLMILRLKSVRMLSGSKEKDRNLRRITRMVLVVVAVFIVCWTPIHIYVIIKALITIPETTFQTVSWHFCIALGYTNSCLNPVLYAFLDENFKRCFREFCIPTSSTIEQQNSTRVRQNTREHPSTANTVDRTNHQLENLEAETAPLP
Rule: Ki below 9 nM gives class 1. Equal to or above 9 nM gives class 0.

Here's what some known entries look like.
Molecular string	Measured target	Category label
CC(C)=CCN1CC[C@@]2(C)c3cc(O)ccc3C[C@@H]1[C@@H]2C	Mu-type opioid receptor (Rattus norvegicus, UniProt P33535)	class 0
C[C@H]1[C@H]2Cc3ccc(O)cc3[C@@]1(C)CCN2C/C=C/Cl	Mu-type opioid receptor (Rattus norvegicus, UniProt P33535)	class 1
C[C@H]1[C@H]2Cc3ccc(O)cc3[C@@]1(C)CCN2	Mu-type opioid receptor (Rattus norvegicus, UniProt P33535)	class 0

Let's switch to this compound now.
q: Is Ki of `CC(C)CCN1CC[C@@]2(C)c3cc(O)ccc3C[C@H]1[C@H]2C` strictly below 9 nM?
a: class 0
